Cited source: ChEMBL document CHEMBL4330101

protocol-details: Cmax in mouse at 10 mg/kg, po
Format: ADME, organism-based
Parameters: dose 10 mg/kg, route oral
applied-conditions: in vivo
reported-property: Cmax (ng/mL)

>>> observed_value("CCCCc1nc(C(C)C)c(CC(=O)OCC)c(=O)n1Cc1ccc(-c2ccccc2-c2noc(=O)[nH]2)cc1")
457

---

protocol-details: Stability in human liver microsomes assessed as parent compound remaining after 30 mins
Assay type: ADME, Microsome
applied-conditions: read-out: Stability
Parameter: remaining at 0.5 h. Scope: all listed entries.
reported-property: remaining at 0.5 h (%)

>>> observed_value("CCCCc1nc(C(C)(C)C)c(CC(=O)OCC)c(=O)n1Cc1ccc(-c2ccccc2-c2noc(=O)[nH]2)cc1")
8.2
>>> observed_value("CCCCc1nc(C(C)C)c(CC(=O)OCC(C)C)c(=O)n1Cc1ccc(-c2ccccc2-c2noc(=O)[nH]2)cc1")
8.8
>>> observed_value("CCCCc1nc(C)c(CC(=O)OC2CCCCC2)c(=O)n1Cc1ccc(-c2ccccc2-c2noc(=O)[nH]2)cc1")
3.9
>>> observed_value("CCCCc1nc(C(C)C)c(CC(=O)OC2CC2)c(=O)n1Cc1ccc(-c2ccccc2-c2noc(=O)[nH]2)cc1")
10.3
>>> observed_value("CCCCc1nc(C2CC2)c(CC(=O)OC)c(=O)n1Cc1ccc(-c2ccccc2-c2noc(=O)[nH]2)cc1")
24.4
>>> observed_value("CCCCc1nc(C)c(CC(=O)OC)c(=O)n1Cc1ccc(-c2ccccc2-c2noc(=O)[nH]2)cc1")
69.6
>>> observed_value("CCCCc1nc(C)c(CC(=O)OCC(C)C)c(=O)n1Cc1ccc(-c2ccccc2-c2noc(=O)[nH]2)cc1")
2.4
>>> observed_value("CCCCc1nc(C(C)C)c(CC(=O)OC)c(=O)n1Cc1ccc(-c2ccccc2-c2noc(=O)[nH]2)cc1")
10.5
>>> observed_value("CC#CCOC(=O)Cc1c(C(C)C)nc(CCCC)n(Cc2ccc(-c3ccccc3-c3noc(=O)[nH]3)cc2)c1=O")
13.7
>>> observed_value("CCCCc1nc(C2CC2)c(CC(=O)OC(C)C)c(=O)n1Cc1ccc(-c2ccccc2-c2noc(=O)[nH]2)cc1")
9.9
>>> observed_value("CCCCc1nc(C(C)C)c(CC(=O)OC(CC)CC)c(=O)n1Cc1ccc(-c2ccccc2-c2noc(=O)[nH]2)cc1")
7.7
>>> observed_value("CCCCOC(=O)Cc1c(C)nc(CCCC)n(Cc2ccc(-c3ccccc3-c3noc(=O)[nH]3)cc2)c1=O")
2.8
>>> observed_value("CCCCc1nc(C)c(CC(=O)OC2CC2)c(=O)n1Cc1ccc(-c2ccccc2-c2noc(=O)[nH]2)cc1")
34.5
>>> observed_value("CCCCc1nc(C(C)C)c(CC(=O)OCCC)c(=O)n1Cc1ccc(-c2ccccc2-c2noc(=O)[nH]2)cc1")
7.2
>>> observed_value("CC#CCOC(=O)Cc1c(C)nc(CCCC)n(Cc2ccc(-c3ccccc3-c3noc(=O)[nH]3)cc2)c1=O")
32
>>> observed_value("CCCCCOC(=O)Cc1c(C(C)C)nc(CCCC)n(Cc2ccc(-c3ccccc3-c3noc(=O)[nH]3)cc2)c1=O")
10.6
>>> observed_value("CCCCOC(=O)Cc1c(C(C)C)nc(CCCC)n(Cc2ccc(-c3ccccc3-c3noc(=O)[nH]3)cc2)c1=O")
7.1
